tested on: biotinyl-Ile-oxazolone; experiment: self-aminoacylation, catalytic enhancement (BIO) (fold over background); higher = more active; k-Seq, kA / k0A0; sequences stand for … in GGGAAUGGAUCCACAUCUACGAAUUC…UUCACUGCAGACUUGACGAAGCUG
Variants at the floor of the assay were thinned out.
measurement kind: self-aminoacylation
// return just the number, without any unit appended

[
  {
    "sequence record": "UUUCGCCUAGGUCAUCGGGUG [Fam2.2 aminoacylation ribozyme variant]",
    "quantitative result": 5.36
  }
]

The value of self-aminoacylation measured for the sequence CUAAUUCAAACAAUCGCUCUG [Fam1A.1 aminoacylation ribozyme variant] turned out to be 0.628

# self-aminoacylation of CUACCUCAAACAAUAGGUCUG [Fam1A.1 aminoacylation ribozyme variant] = 0.959

Memo: AUUACCGUGGGCAUCGAGUGA [Fam2.1 aminoacylation ribozyme variant] , reported self-aminoacylation: 3.09

// recorded self-aminoacylation for AUUCACCUGGGACAUCGGGUG [Fam2.2 aminoacylation ribozyme variant] : 4.15

The reported value for AGUAGCCUGGUCAUCGAGUGA [Fam2.1 aminoacylation ribozyme variant] in terms of self-aminoacylation is 4.84

Documented self-aminoacylation of AUUCACCUCGUUCAUCGGGUG [Fam2.2 aminoacylation ribozyme variant] : 2.93

self-aminoacylation reported for this sequence AUUACCCUGGCCAUCGAGUUA [Fam2.1 aminoacylation ribozyme variant] : 1.38

self-aminoacylation reading for AAAUUAGCUAAUAGUCGCAAG [Fam3.1 aminoacylation ribozyme variant] : 2.36

* * *

tested on: biotinyl-Leu-oxazolone; experiment: self-aminoacylation, catalytic enhancement (BLO) (fold over background); higher = more active; k-Seq, kA / k0A0; sequences stand for … in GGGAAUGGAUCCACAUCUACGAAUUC…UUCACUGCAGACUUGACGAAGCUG
Variants at the floor of the assay were thinned out.
Entries annotated with measured self-aminoacylation
Enter a number only.

[
  {
    "sequence record": "AAGUAUUCUAAUAGUCGCAAG [Fam3.1 aminoacylation ribozyme variant]",
    "self-aminoacylation": 1.71
  },
  {
    "sequence record": "UUUACCCUGGUCAUCAAGUGA [Fam2.1 aminoacylation ribozyme variant]",
    "self-aminoacylation": 1.85
  },
  {
    "sequence record": "AUUCCCCUGGUCAUCGAGUGC [Fam2.1 aminoacylation ribozyme variant]",
    "self-aminoacylation": 1.63
  },
  {
    "sequence record": "AUUACCCUGGUCAUCGACUGC [Fam2.1 aminoacylation ribozyme variant]",
    "self-aminoacylation": 0.839
  },
  {
    "sequence record": "UUUACCCUGGUCAUUGAGUGA [Fam2.1 aminoacylation ribozyme variant]",
    "self-aminoacylation": 7.06
  }
]

self-aminoacylation in this record for UAGUUUGCGAAUAGUCGCAAG [Fam3.1 aminoacylation ribozyme variant] : 1.75

Record summary for AAGUUUGCUAAUAGUCCCAAC [Fam3.1 aminoacylation ribozyme variant] : reported self-aminoacylation = 0.585

Item: CUUCACCUAGAUCAUCGGGUG [Fam2.2 aminoacylation ribozyme variant] | self-aminoacylation: 2.86

Consider CAACUUCAAACAAUCGGCCUG [Fam1A.1 aminoacylation ribozyme variant] . Its measured self-aminoacylation is 6.75

Value of self-aminoacylation reported for the sequence GAGUUUGCUAAUAGUCGCGAG [Fam3.1 aminoacylation ribozyme variant] is 1.47
